I'd appreciate it if you could supply Relative activity of maturated deamidase (% initial rate) values for the items below.
MEASURED_TARGET: T1, Chryseobacterium sp-62563 deamidase polypeptide (second polypeptide, deamidase domain), wildtype (Chryseobacterium sp-62563)
T1 sequence: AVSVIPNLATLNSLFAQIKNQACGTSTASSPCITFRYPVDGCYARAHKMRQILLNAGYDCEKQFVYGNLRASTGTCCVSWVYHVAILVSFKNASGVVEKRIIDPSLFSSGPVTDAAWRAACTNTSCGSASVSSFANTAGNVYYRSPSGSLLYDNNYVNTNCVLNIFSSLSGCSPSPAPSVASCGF
EXPERIMENT: cell-based or functional assay
Please reply with the value in numeric form only.

Suppose we examine the binder Chryseobacterium sp-62563 propeptide T88K (protein) NQDPNLVAKESNETAMKDFGKTVPVGIEKEDGKFKISFMVTAQPYEIKDSKENAAYISMIKTAVENETPIHVFLKANTNEIAKVDKAKDDDIRYFKSVFTKEVKEENRK ; what Relative activity of maturated deamidase (% initial rate) value has been reported?
33

Query: Relative activity of maturated deamidase (% initial rate); subject: Chryseobacterium sp-62563 propeptide Y45K (protein) NQDPNLVAKESNETAMKDFGKTVPVGIEKEDGKFKISFMVTAQPKEIKDSKENAAYISMIKTAVENETPIHVFLKANTNEIAKVDKATDDDIRYFKSVFTKEVKEENRK
48

I have this binder here, Chryseobacterium sp-62563 propeptide V64L (protein) NQDPNLVAKESNETAMKDFGKTVPVGIEKEDGKFKISFMVTAQPYEIKDSKENAAYISMIKTALENETPIHVFLKANTNEIAKVDKATDDDIRYFKSVFTKEVKEENRK , and I need its recorded Relative activity of maturated deamidase (% initial rate).
49

Item under review: Chryseobacterium sp-62563 propeptide F99D (protein) NQDPNLVAKESNETAMKDFGKTVPVGIEKEDGKFKISFMVTAQPYEIKDSKENAAYISMIKTAVENETPIHVFLKANTNEIAKVDKATDDDIRYFKSVDTKEVKEENRK . Reported Relative activity of maturated deamidase (% initial rate)?
69

Look up Relative activity of maturated deamidase (% initial rate): Chryseobacterium sp-62563 propeptide V25C (protein) NQDPNLVAKESNETAMKDFGKTVPCGIEKEDGKFKISFMVTAQPYEIKDSKENAAYISMIKTAVENETPIHVFLKANTNEIAKVDKATDDDIRYFKSVFTKEVKEENRK
96

# query: Relative activity of maturated deamidase (% initial rate) of entry Chryseobacterium sp-62563 propeptide F95W (protein) NQDPNLVAKESNETAMKDFGKTVPVGIEKEDGKFKISFMVTAQPYEIKDSKENAAYISMIKTAVENETPIHVFLKANTNEIAKVDKATDDDIRYWKSVFTKEVKEENRK
58

Please look up its Relative activity of maturated deamidase (% initial rate): Chryseobacterium sp-62563 propeptide Y45Q (protein) NQDPNLVAKESNETAMKDFGKTVPVGIEKEDGKFKISFMVTAQPQEIKDSKENAAYISMIKTAVENETPIHVFLKANTNEIAKVDKATDDDIRYFKSVFTKEVKEENRK
88

// lookup Relative activity of maturated deamidase (% initial rate) for Chryseobacterium sp-62563 propeptide K86G (protein) NQDPNLVAKESNETAMKDFGKTVPVGIEKEDGKFKISFMVTAQPYEIKDSKENAAYISMIKTAVENETPIHVFLKANTNEIAKVDGATDDDIRYFKSVFTKEVKEENRK
34

I would be grateful if you could share the reported Relative activity of maturated deamidase (% initial rate) for Chryseobacterium sp-62563 propeptide K96H (protein) NQDPNLVAKESNETAMKDFGKTVPVGIEKEDGKFKISFMVTAQPYEIKDSKENAAYISMIKTAVENETPIHVFLKANTNEIAKVDKATDDDIRYFHSVFTKEVKEENRK .
30

Given Chryseobacterium sp-62563 propeptide D18P (protein) NQDPNLVAKESNETAMKPFGKTVPVGIEKEDGKFKISFMVTAQPYEIKDSKENAAYISMIKTAVENETPIHVFLKANTNEIAKVDKATDDDIRYFKSVFTKEVKEENRK , state its recorded Relative activity of maturated deamidase (% initial rate).
66

# get_value(readout='Relative activity of maturated deamidase (% initial rate)', item= Chryseobacterium sp-62563 propeptide K96N (protein) NQDPNLVAKESNETAMKDFGKTVPVGIEKEDGKFKISFMVTAQPYEIKDSKENAAYISMIKTAVENETPIHVFLKANTNEIAKVDKATDDDIRYFNSVFTKEVKEENRK )
55

Give its Relative activity of maturated deamidase (% initial rate) value. Item: Chryseobacterium sp-62563 propeptide K101N (protein) NQDPNLVAKESNETAMKDFGKTVPVGIEKEDGKFKISFMVTAQPYEIKDSKENAAYISMIKTAVENETPIHVFLKANTNEIAKVDKATDDDIRYFKSVFTNEVKEENRK
29

Each recorded value in this set is attributed to patent US20250215412A1.
